Recorded pIC50 values for a group of molecules are listed next.
target: ALK3 (BMPR1A) (Homo sapiens (Human), UniProt P36894); experiment: In vitro kinase assay, ALK3; format: biochemical; details: 10 μM ATP; read-out: Inhibition of ALK3 IC50
Sequence (P36894 24-532): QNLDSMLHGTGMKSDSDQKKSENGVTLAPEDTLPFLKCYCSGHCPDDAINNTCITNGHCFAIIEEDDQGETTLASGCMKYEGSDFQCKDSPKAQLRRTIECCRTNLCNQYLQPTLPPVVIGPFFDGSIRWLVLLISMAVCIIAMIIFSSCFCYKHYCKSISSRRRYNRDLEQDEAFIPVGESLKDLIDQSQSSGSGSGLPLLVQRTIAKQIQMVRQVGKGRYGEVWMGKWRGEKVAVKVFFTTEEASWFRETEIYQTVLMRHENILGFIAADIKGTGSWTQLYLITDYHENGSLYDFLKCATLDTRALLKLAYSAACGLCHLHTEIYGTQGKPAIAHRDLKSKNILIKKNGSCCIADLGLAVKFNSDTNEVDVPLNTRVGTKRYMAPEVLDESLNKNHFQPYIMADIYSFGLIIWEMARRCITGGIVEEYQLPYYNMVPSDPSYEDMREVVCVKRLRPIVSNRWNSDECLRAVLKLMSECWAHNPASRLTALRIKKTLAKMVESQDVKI
pIC50: −log10 of the molar value.

A selection of reference data follows.
> print(dat)
                                   molecule                         system.under.test  endpoint.label     val
1  C=C(C)c1cnc(-c2cc(Cl)ccc2F)cc1Nc1ccncc1C(=O)N[C@@H](C)CO  ALK3 (BMPR1A) (Homo sapiens (Human), UniProt P36894)           pIC50  < 4.00
2  C=C(C)c1c(Nc2ccncc2C(=O)NC[C@H](C)O)cc(-c2cc(Cl)ccc2F)nc1N (single isomer, unassigned) [23a]  ALK3 (BMPR1A) (Homo sapiens (Human), UniProt P36894)           pIC50  < 4.00
3  C=C(C)c1cnc(-c2cc(Cl)ccc2F)cc1Nc1ccncc1C(=O)NCCO  ALK3 (BMPR1A) (Homo sapiens (Human), UniProt P36894)           pIC50  < 4.00
4  C=C(C)c1cnc(-c2cc(Cl)ccc2F)cc1Nc1ccncc1C(=O)N1CCCC1  ALK3 (BMPR1A) (Homo sapiens (Human), UniProt P36894)           pIC50  < 5.00
5  C=C(C)c1cnc(-c2cc(Cl)ccc2F)cc1Nc1ccncc1C(=O)N[C@@H](CC)CO (single isomer, unassigned) [24a]  ALK3 (BMPR1A) (Homo sapiens (Human), UniProt P36894)           pIC50  < 4.00
6  C=C(C)c1cnc(-c2cc(Cl)ccc2F)cc1Nc1ccncc1C(=O)NC(C)(C)CO  ALK3 (BMPR1A) (Homo sapiens (Human), UniProt P36894)           pIC50  < 4.00
7  C[C@H](O)CNC(=O)c1cnccc1Nc1cc(-c2cc(Cl)ccc2F)ncc1C1CC1  ALK3 (BMPR1A) (Homo sapiens (Human), UniProt P36894)           pIC50  < 5.00
8  Fc1ccc(Cl)cc1-c1cc(Nc2ccnc3[nH]ccc23)c(C2CC2)cn1  ALK3 (BMPR1A) (Homo sapiens (Human), UniProt P36894)           pIC50    5.48

Lookup: Lab note: need pIC50 with ALK3 (BMPR1A) (Homo sapiens (Human), UniProt P36894) for entry CC(O)CNC(=O)c1c[nH]nc1Nc1cc(-c2cc(Cl)ccc2F)ncc1C(C)C (single isomer, unassigned) [21a] , please look it up.
Found: < 3.00

Lookup: Lab note: need pIC50 with ALK3 (BMPR1A) (Homo sapiens (Human), UniProt P36894) for entry `CC(C)c1cnc(-c2ncccc2F)cc1Nc1ncnc2[nH]ccc12` , please look it up.
Found: < 5.00

Lookup: Lab note: need pIC50 with ALK3 (BMPR1A) (Homo sapiens (Human), UniProt P36894) for entry `CC(C)c1cnc(-c2ccccc2)cc1Nc1ccncc1C(=O)NC[C@H](C)O` , please look it up.
Found: < 3.00
